Known ED50 of a selection of compounds
- Tested on: vertebral artery
- experiment: Blood flow-increasing activity in the vertebral artery, anesthetized dog
- Format: in vivo, crossbred adult dog
- condition-info: Canis lupus familiaris; dog; near arterial injection; papaverine hydrochloride 100 μg/kg = 100%
API: value field is a number in µg/kg; no unit string.

Consider the worked cases shown below.
[
  {
    "compound": "CCC#CCC(C)[C@H](O)/C=C/[C@@H]1[C@H]2CC=C(CCCCC(=O)O)C[C@H]2C[C@H]1O (stereo partly shown)",
    "ED50 [µg/kg]": 0.8
  },
  {
    "compound": "CCCCC[C@H](O)/C=C/[C@@H]1[C@H]2CCC(CCCC(=O)O)=C[C@H]2C[C@H]1O",
    "ED50 [µg/kg]": 0.44
  },
  {
    "compound": "CCCCC[C@H](O)/C=C/[C@@H]1[C@H]2CCC(CCCCC(=O)O)=C[C@H]2C[C@H]1O [(e)]",
    "ED50 [µg/kg]": 2.5
  },
  {
    "compound": "CCC#CCC(C)[C@H](O)/C=C/[C@@H]1[C@H]2CCC(CCCCC(=O)O)=C[C@H]2C[C@H]1O (stereo partly shown)",
    "ED50 [µg/kg]": 0.57
  },
  {
    "compound": "CCC#CCC(C)[C@H](O)/C=C/[C@@H]1[C@H]2CCC(CCOCC(=O)O)=C[C@H]2C[C@H]1O (stereo partly shown)",
    "ED50 [µg/kg]": 2
  }
]

Q) Give its ED50 value. Item: CCC#CCC(C)[C@H](O)/C=C/[C@@H]1[C@H]2CCC(C=CCCC(=O)O)=C[C@H]2C[C@H]1O (stereo partly shown)
A) 1.9

Q) Give its ED50 value. Item: CCC#CCC(C)[C@H](O)/C=C/[C@@H]1[C@H]2CCC(CCCC(=O)O)=C[C@H]2C[C@H]1O (stereo partly shown)
A) 0.75

----------
- System: Indomethacine ulcer
- experiment: Indomethacine ulcer inhibiting activity
- Assay type: in vivo, Male wister rats
- condition-info: rat; oral administration of 60 μg/kg twice
assay-metric: Indomethacine ulcer inhibiting activity, Inhibiting rate
Answer by giving the amount and then stating its unit.

Consider the worked cases shown below.
[
  {
    "molecule": "CCC#CCC(C)[C@H](O)/C=C/[C@@H]1[C@H]2CCC(C=CCCC(=O)O)=C[C@H]2C[C@H]1O (stereo partly shown)",
    "recorded-result": "73.5%"
  },
  {
    "molecule": "CCC#CCC(C)[C@H](O)/C=C/[C@@H]1[C@H]2CCC(CCOCC(=O)O)=C[C@H]2C[C@H]1O (stereo partly shown)",
    "recorded-result": "57.3%"
  },
  {
    "molecule": "CCC#CCC(C)[C@H](O)/C=C/[C@@H]1[C@H]2CCC(CCCCC(=O)O)=C[C@H]2C[C@H]1O (stereo partly shown)",
    "recorded-result": "38.8%"
  }
]

Now consider the entry below.
Q) Under Indomethacine ulcer: Indomethacine ulcer inhibiting activity, Inhibiting rate value of CCC#CCC(C)[C@H](O)/C=C/[C@@H]1[C@H]2CCC(CCCC(=O)O)=C[C@H]2C[C@H]1O (stereo partly shown) ?
A) 99.4%

----------
Known pIC50 of a selection of molecules
- Test system: Blood platelet (ADP agglutination)
- experiment: Blood platelet agglutination inhibiting activity (ADP-induced), washed rabbit platelet suspension
- Format: cell-based, rabbit (Japanese white male rabbits)
- condition-info: Oryctolagus cuniculus, Platelet; ADP 10 μM; concentration suppressing agglutination to 50%; read-out: Platelet agglutination inhibiting activity ED50, ADP agglutination
Expect pIC50 as a plain number equal to -log10 of the molar concentration.

[
  {
    "molecule": "CCC#CCC(C)[C@H](O)/C=C/[C@@H]1[C@H]2CCC(CCCCC(=O)O)=C[C@H]2C[C@H]1O (stereo partly shown)",
    "assay-metric": "pIC50",
    "recorded-result": 7.64
  }
]

Q) Give its pIC50 value. Item: CCC#CCC(C)[C@H](O)/C=C/[C@@H]1[C@H]2CCC(CCOCC(=O)O)=C[C@H]2C[C@H]1O (stereo partly shown)
A) 7.42

Q) Give its pIC50 value. Item: CCCCC[C@H](O)/C=C/[C@@H]1[C@H]2CCC(C=CCCC(=O)O)=C[C@H]2C[C@H]1O
A) 7.30

Q) Give its pIC50 value. Item: CCCCC[C@H](O)/C=C/[C@@H]1[C@H]2C/C(=C/CCCC(=O)O)O[C@H]2C[C@H]1O
A) 8.54

Q) Give its pIC50 value. Item: CCC#CCC(C)[C@H](O)/C=C/[C@@H]1[C@H]2CCC(CCCC(=O)O)=C[C@H]2C[C@H]1O (stereo partly shown)
A) 7.11

Q) Give its pIC50 value. Item: CCCCC[C@H](O)/C=C/[C@@H]1[C@H]2CCC(CCCCC(=O)O)=C[C@H]2C[C@H]1O [(e)]
A) 6.54

Q) Give its pIC50 value. Item: CCCCC[C@H](O)/C=C/[C@@H]1[C@H]2CCC(CCCC(=O)O)=C[C@H]2C[C@H]1O
A) 5.89

Q) Give its pIC50 value. Item: CCC#CCC(C)[C@H](O)/C=C/[C@@H]1[C@H]2CC=C(CCCCC(=O)O)C[C@H]2C[C@H]1O (stereo partly shown)
A) 7.66

Q) Give its pIC50 value. Item: CCC#CCC(C)[C@H](O)/C=C/[C@@H]1[C@H]2CCC(C=CCCC(=O)O)=C[C@H]2C[C@H]1O (stereo partly shown)
A) 8.06
